src = ChEMBL document CHEMBL1155221

experimental target: Adrenergic receptor alpha-2 (Homo sapiens, UniProt P08913+P18825+P18089)
experiment notes: Inhibition of human alpha 2 adrenoceptor
measured parameter: IC50

Challenge: Please give the measured IC50 for this compound: `O=S(=O)(Nc1ccc2c(c1)/C(=N/NC1=NCCN1)CC2)c1c(Cl)nc2sccn12`
Response given: > 1 ×10⁴ nM

Challenge: Please give the measured IC50 for this compound: `Cl.N=C(N)N/N=C1\CCc2cc(NS(=O)(=O)c3c(Cl)nc4sccn34)ccc21`
Response given: > 1000 nM

Challenge: Please give the measured IC50 for this compound: `CC1(C)C/C(=N\NC(=N)N)c2cc(NS(=O)(=O)c3c(Cl)nc4sccn34)ccc21.Cl`
Response given: > 1 ×10⁴ nM

Challenge: Please give the measured IC50 for this compound: `Cl.N=C(N)N/N=C1\CCc2ccc(NS(=O)(=O)c3c(Cl)nc4sccn34)cc21`
Response given: > 1 ×10⁴ nM

Challenge: Please give the measured IC50 for this compound: `Cl.N=C(N)N/N=C1\CCc2ccc(NS(=O)(=O)c3ccc4ccccc4c3)cc21`
Response given: > 1000 nM

Challenge: Please give the measured IC50 for this compound: CC1Cc2ccc(NS(=O)(=O)c3c(Cl)nc4sccn34)cc2/C1=N/NC(=N)N.Cl (racemic)
Response given: > 1000 nM

Challenge: Please give the measured IC50 for this compound: `CN(c1ccc2c(c1)/C(=N/NC(=N)N)CC2)S(=O)(=O)c1c(Cl)nc2sccn12.Cl`
Response given: > 1000 nM
